# assay-procedure: chemical genetic growth profiling, strain panel (AID 1159580);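 further: tested at 20 µM; growth read once vehicle control cultures reached saturation at 30 °C; 1 = growth at the plate median or of vehicle wells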
# test-conditions: S. cerevisiae deletion strains, growth OD, locus YEL003W, strain gim4, stronger effect = lower value
Hit rate of the full screen: of about 5,500 compounds, about 2,000 (36%) were called active. Roughly 18% stayed inconclusive and do not appear here. Some of the results follow.
quantity-measured: normalized growth

[
  {
    "molecule": "O=C(/C=C/c1ccc(O)c(O)c1)OC(Cc1ccc(O)c(O)c1)C(=O)O (stereo unspecified)",
    "quantity-measured": "normalized growth",
    "assay-result": 0.999
  },
  {
    "molecule": "CC1CCc2cc(F)cc3c(=O)c(C(=O)O)cn1c23 (stereo unspecified)",
    "quantity-measured": "normalized growth",
    "assay-result": 1
  },
  {
    "molecule": "CCn1cc(C(=O)O)c(=O)c2cc(F)c(N3CCNCC3)nc21",
    "quantity-measured": "normalized growth",
    "assay-result": 0.985
  },
  {
    "molecule": "CCn1cc(C(=O)O)c(=O)c2cc(F)c(N3CCNC(C)C3)c(F)c21 (stereo unspecified)",
    "quantity-measured": "normalized growth",
    "assay-result": 0.982
  },
  {
    "molecule": "CC(C)NCC(O)COc1cccc2[nH]ccc12 (stereo unspecified)",
    "quantity-measured": "normalized growth",
    "assay-result": 0.988
  },
  {
    "molecule": "CC1COc2c(N3CCN(C)CC3)c(F)cc3c(=O)c(C(=O)O)cn1c23 (stereo unspecified)",
    "quantity-measured": "normalized growth",
    "assay-result": 1
  }
]

----------
Measured normalized growth by item
# assay-procedure: chemical genetic growth profiling, strain panel (AID 1159580)
# test-conditions: S. cerevisiae deletion strains, growth OD, locus YAL026C, strain drs2, stronger effect = lower value
Out of some 5,500 compounds screened, about 2,000 (36%) were called active. About 18% were inconclusive and are not listed. The list shows a part of the results.
quantity-measured: normalized growth

[
  {
    "molecule": "Cc1ccc(C(=O)Nc2ccc(S(=O)(=O)O)c3cc(S(=O)(=O)O)cc(S(=O)(=O)O)c23)cc1NC(=O)c1cccc(NC(=O)Nc2cccc(C(=O)Nc3cc(C(=O)Nc4ccc(S(=O)(=O)O)c5cc(S(=O)(=O)O)cc(S(=O)(=O)O)c45)ccc3C)c2)c1",
    "assay-result": "1 (inactive)"
  },
  {
    "molecule": "C=C1CCC2[C@](C)(CO)[C@H](O)CC[C@@]2(C)[C@@H]1C/C=C1/C(=O)OC[C@H]1O (some centres undefined)",
    "assay-result": "0.992 (inactive)"
  },
  {
    "molecule": "C=C[C@@](C)(O)CCC1C(=C)C[C@H](OC(C)=O)C2C(C)(C)CCCC12C (some centres undefined)",
    "assay-result": "1.03 (inactive)"
  },
  {
    "molecule": "CN(C)CCN(Cc1ccccc1)c1ccccn1",
    "assay-result": "1.01 (inactive)"
  }
]

----------
# assay-procedure: chemical genetic growth profiling, strain panel (AID 1159580)
# test-conditions: S. cerevisiae deletion strains, growth OD, locus YDR159W, strain sac3, stronger effect = lower value
In all, about 5,500 compounds went through this assay and about 2,000 (36%) were called active. Another 18% or so got no clear call; they are omitted. The list shows a part of the results.
Recorded normalized growth by entry
quantity-measured: normalized growth

[
  {
    "molecule": "CNCCC(Oc1ccc(C(F)(F)F)cc1)c1ccccc1 (configuration not stated)",
    "assay-result": 1
  },
  {
    "molecule": "O=C(c1ccc(OCCN2CCCCC2)cc1)c1c(-c2ccc(O)cc2)sc2cc(O)ccc12",
    "assay-result": 0.984
  },
  {
    "molecule": "COc1ccc(C(CN(C)C)C2(O)CCCCC2)cc1 (configuration not stated)",
    "assay-result": 0.974
  },
  {
    "molecule": "OCCc1ccccc1",
    "assay-result": 0.98
  },
  {
    "molecule": "O=C(O)CCCc1ccccc1",
    "assay-result": 0.981
  },
  {
    "molecule": "CC1(O)CC2C(CC1O)C2(C)C (configuration not stated)",
    "assay-result": 1
  },
  {
    "molecule": "O=C1CCC(N2C(=O)c3ccccc3C2=O)C(=O)N1 (configuration not stated)",
    "assay-result": 0.974
  },
  {
    "molecule": "CN1CC(=O)N=C1N",
    "assay-result": 1.05
  },
  {
    "molecule": "CC(=O)Oc1cc(OC(C)=O)c2c(c1)O[C@H](c1ccc(OC(C)=O)c(OC(C)=O)c1)[C@@H](OC(C)=O)C2",
    "assay-result": 0.999
  },
  {
    "molecule": "COc1ccc(C(c2ccc(OC)cc2)C(Cl)(Cl)Cl)cc1",
    "assay-result": 0.972
  },
  {
    "molecule": "CCC[C@H](N[C@@H](C)C(=O)N1[C@H](C(=O)O)C[C@@H]2CCCC[C@@H]21)C(=O)OCC",
    "assay-result": 1.02
  },
  {
    "molecule": "COC(=O)C1=COC(OC2OC(CO)C(O)C(O)C2O)C2C(C)CC(=O)C12 (configuration not stated)",
    "assay-result": 1.01
  }
]

----------
# assay-procedure: chemical genetic growth profiling, strain panel (AID 1159580);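 further: tested at 20 µM; growth read once vehicle control cultures reached saturation at 30 °C; 1 = growth at the plate median or of vehicle wells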
# test-conditions: S. cerevisiae deletion strains, growth OD, locus YDR001C, strain nth1, stronger effect = lower value
Among all 5,500 compounds or so, about 2,000 (36%) were called active. Not shown: some 18% with an inconclusive outcome. Some of the results follow.
Lab note: cut-off is 1. Strictly less in normalized growth is satisfied. Exactly 1 or more is not satisfied.

[
  {
    "compound": "CC[C@@]1(O)C[C@H](O[C@H]2C[C@H](N(C)C)[C@H](O)[C@H](C)O2)c2c(cc3c(c2O)C(=O)c2c(O)cccc2C3=O)[C@H]1C(=O)OC",
    "category-label": "satisfied"
  },
  {
    "compound": "CC[C@@]1(O)C[C@H](O[C@H]2C[C@H](N(C)C)[C@H](O)[C@H](C)O2)c2c(cc3c(c2O)C(=O)c2c(O)ccc(O)c2C3=O)[C@H]1C(=O)OC",
    "category-label": "satisfied"
  },
  {
    "compound": "c1ccc2c(c1)sc1ccccc12",
    "category-label": "satisfied"
  },
  {
    "compound": "O=C(/C=C/c1ccc(O)c(O)c1)OCCc1ccccc1",
    "category-label": "satisfied"
  },
  {
    "compound": "CC[C@@H](C(=O)C(C)[C@@H](O)[C@H](C)CCc1ccc(C)c(O)c1C(=O)O)C1OC(CC)(C2CC[C@](O)(CC)[C@H](C)O2)C[C@@H]1C (stereo partly specified)",
    "category-label": "not satisfied"
  },
  {
    "compound": "CCCCCCCCCCC[C@@H](C[C@H]1OC(=O)[C@H]1CCCCCC)OC(=O)[C@@H](CC(C)C)NC=O",
    "category-label": "not satisfied"
  }
]

----------
# assay-procedure: chemical genetic growth profiling, strain panel (AID 1159580);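 further: tested at 20 µM; growth read once vehicle control cultures reached saturation at 30 °C; 1 = growth at the plate median or of vehicle wells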
# test-conditions: S. cerevisiae deletion strains, growth OD, locus YDR150W, strain NUM1, stronger effect = lower value
Screen size: about 5,500 compounds; about 2,000 (36%) were called active. Another 18% or so got no clear call; they are omitted. This is one part of the list.
Quick rule for you: normalized growth under 1 gets yes (1), anything else gets no (0).

[
  {
    "compound": "O=[N+]([O-])c1ccc(S(=O)(=O)N2CCCCC2)cc1",
    "category-label": "yes (1)"
  },
  {
    "compound": "Oc1cc(O)c2c(c1)OC(c1cc(O)c(O)c(O)c1)C(O)C2c1c(O)cc(O)c2c1OC(c1cc(O)c(O)c(O)c1)C(O)C2c1c(O)cc(O)c2c1OC(c1cc(O)c(O)c(O)c1)C(O)C2 (centres undefined)",
    "category-label": "yes (1)"
  },
  {
    "compound": "Oc1ccc2c(c1)O[C@H](c1ccc(O)c(O)c1)[C@@H](O)C2",
    "category-label": "no (0)"
  },
  {
    "compound": "CC[C@@H](C(=O)C(C)[C@@H](O)[C@H](C)CCc1ccc(C)c(O)c1C(=O)O)C1OC(CC)(C2CC[C@](O)(CC)[C@H](C)O2)C[C@@H]1C (some centres undefined)",
    "category-label": "no (0)"
  }
]

----------
# assay-procedure: chemical genetic growth profiling, strain panel (AID 1159580);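 further: tested at 20 µM; growth read once vehicle control cultures reached saturation at 30 °C; 1 = growth at the plate median or of vehicle wells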
# test-conditions: S. cerevisiae deletion strains, growth OD, locus YGR092W, strain DBF2, stronger effect = lower value
Out of some 5,500 compounds screened, about 2,000 (36%) were called active. Roughly 18% stayed inconclusive and do not appear here. Some of the results follow.
Kindly apply the following: class 1 if normalized growth is less than 0.8, class 0 in every other case.

[
  {
    "compound": "O=C(Nc1cccc(C(F)(F)F)c1)c1cncc(C#Cc2ccccc2)c1",
    "category-label": "class 0"
  },
  {
    "compound": "Fc1cc(I)ccc1Nc1ccnc2cc(Cl)ccc12",
    "category-label": "class 0"
  },
  {
    "compound": "Cc1ccc(S(=O)(=O)NC(=O)Nc2ccc(Sc3ccccc3)nc2Sc2ccccc2)cc1",
    "category-label": "class 0"
  },
  {
    "compound": "N/C(CCSc1ccc(Cl)cc1)=N/OC(=O)Nc1ccc(Cl)cc1",
    "category-label": "class 1"
  },
  {
    "compound": "O=C(Oc1cccc2[nH]ccc12)c1ccc(C(F)(F)F)cc1",
    "category-label": "class 1"
  },
  {
    "compound": "O=C(NCc1ccc(Cl)c(Cl)c1)c1cccnc1OCC(F)(F)F",
    "category-label": "class 0"
  },
  {
    "compound": "COc1ccc(C(CC(=O)c2ccccc2)Sc2ccccc2N)cc1OC (stereo not given)",
    "category-label": "class 0"
  },
  {
    "compound": "CC(C)c1ccc(COC(=O)Nc2ccc(CSc3ccc(Cl)cc3)o2)cc1",
    "category-label": "class 0"
  },
  {
    "compound": "CC1(C)CC(=O)C=C(Sc2nc3ccccc3o2)C1",
    "category-label": "class 1"
  },
  {
    "compound": "Oc1c(Cl)cc(Cl)cc1C=Nc1nc(-c2ccc3ccccc3c2)cs1",
    "category-label": "class 1"
  }
]

Origin of the recorded values: PubChem BioAssay AID1159580
